Data credit: paper PMC10313671

List of Concentration values.
# Protocol Summary: Peptide hydrogel formation, vial-inverting method
# Assay type: physicochemical
# Conditions: concentration at which the state was recorded: lowest of 30, 60, 90, 120 mM that gave a gel; 120 mM for non-gelating peptides
Where a SMILES comes first, the peptide text is derived from it.
Give the figure together with its unit, number first.

Guide cases for Concentration, answers given:
Compound	Value Reported
CC(C)C[C@H](N)C(=O)N[C@H](C(=O)N1CCC[C@H]1C(=O)N[C@@H](Cc1ccccc1)C(=O)O)C(C)C [LVPF] (H-LVPF-OH)	120000 µM
NC(=O)C[C@H](NC(=O)[C@H](CC(N)=O)NC(=O)[C@H](CC(N)=O)NC(=O)[C@@H](N)CC(N)=O)C(=O)O [NNNN] (H-NNNN-OH)	120000 µM
CC(C)[C@H](N)C(=O)N[C@@H](C)C(=O)N[C@@H](Cc1ccccc1)C(=O)N[C@@H](Cc1ccc(O)cc1)C(=O)O [VAFY] (H-VAFY-OH)	120000 µM
CC(C)[C@H](NC(=O)[C@H](C)NC(=O)[C@@H](N)[C@@H](C)O)C(=O)N[C@@H](Cc1ccccc1)C(=O)O [TAVF] (H-TAVF-OH)	120000 µM
CC(C)C[C@H](NC(=O)[C@H](Cc1c[nH]cn1)NC(=O)[C@@H](N)Cc1ccccc1)C(=O)N[C@@H](Cc1ccccc1)C(=O)O [FHLF] (H-FHLF-OH)	30000 µM

[in] Looking for the measured Concentration of CC(C)C[C@H](NC(=O)[C@H](Cc1ccccc1)NC(=O)[C@@H](N)CS)C(=O)N[C@@H](Cc1c[nH]c2ccccc12)C(=O)O [CFLW] (H-CFLW-OH) , can you help?
[out] 120000 µM

[in] Looking for the measured Concentration of CC(C)C[C@H](N)C(=O)N[C@@H](Cc1c[nH]c2ccccc12)C(=O)N[C@@H](Cc1c[nH]c2ccccc12)C(=O)N[C@@H](Cc1ccccc1)C(=O)O [LWWF] (H-LWWF-OH) , can you help?
[out] 30000 µM

[in] Looking for the measured Concentration of CC(C)C[C@H](NC(=O)[C@@H](NC(=O)CN)C(C)C)C(=O)N[C@@H](Cc1ccccc1)C(=O)O [GVLF] (H-GVLF-OH) , can you help?
[out] 60000 µM

[in] Looking for the measured Concentration of C[C@H](N)C(=O)N[C@@H](C)C(=O)N[C@@H](C)C(=O)N[C@@H](C)C(=O)O [AAAA] (H-AAAA-OH) , can you help?
[out] 120000 µM

[in] Looking for the measured Concentration of CC(C)[C@H](NC(=O)[C@@H](N)CC(=O)O)C(=O)N[C@@H](Cc1ccccc1)C(=O)N[C@@H](Cc1c[nH]c2ccccc12)C(=O)O [DVFW] (H-DVFW-OH) , can you help?
[out] 30000 µM

[in] Looking for the measured Concentration of N[C@@H](CO)C(=O)N[C@@H](CO)C(=O)N[C@@H](CO)C(=O)N[C@@H](CO)C(=O)O [SSSS] (H-SSSS-OH) , can you help?
[out] 120000 µM

[in] Looking for the measured Concentration of NCCCC[C@H](NC(=O)[C@@H](N)Cc1ccccc1)C(=O)N[C@@H](Cc1ccccc1)C(=O)N[C@@H](Cc1ccccc1)C(=O)O [FKFF] (H-FKFF-OH) , can you help?
[out] 60000 µM

[in] Looking for the measured Concentration of N[C@@H](CO)C(=O)N[C@@H](CO)C(=O)N[C@@H](Cc1ccccc1)C(=O)N[C@@H](Cc1ccccc1)C(=O)O [SSFF] (H-SSFF-OH) , can you help?
[out] 30000 µM
